Test system: SK-OV-3 ovarian
Assay: NCI-60 one-dose screen, 48 h (100 = growth as untreated, 0 = no growth, -100 = all killed)
Settings: 10 µM unless noted
This is part of a sample that, as a whole, favours compounds with a hit. Of some 83,000 tested, about 20% had one in any assay. Active and inactive are the calls of the source. Rule for the calls: active = growth percent below 10; inactive = the rest.
Endpoint: growth

Tell us which growth value is on record for COc1cc(NS(=O)(=O)C(C)C)cc(-c2cc(-c3ccc(N4CCNCC4)cc3)cnc2N)c1 96.9% (inactive)

Tell us which growth value is on record for C#CCOc1cccc(Nc2ncc3ncn(C4CCN(C(=O)CCl)C4)c3n2)c1 (configuration not stated) 73.4% [6.25 µM] (inactive)

Tell us which growth value is on record for C=C1C(=O)O[C@H]2[C@H]1CC/C(CNS(=O)(=O)c1ccc3ccccc3c1)=C\CC[C@@]1(C)O[C@@H]21 84.6% (inactive)

Tell us which growth value is on record for CC(C)=CCc1cc(O)c(O)c2oc3cc(O)cc(O)c3c(=O)c12 65.7% (inactive)

Tell us which growth value is on record for O=C1/C(=C/c2ccc(-c3cccc(C(F)(F)F)c3)o2)SC(=S)N1CCc1ccc(O)cc1 85.4% (inactive)

Tell us which growth value is on record for O=C(NNc1ccccc1)C1CCCN1 (configuration not stated) 80.6% (inactive)

Tell us which growth value is on record for CN1CCN(c2ccc(/C=C/C(=O)c3ccc(O)cc3)cc2)CC1 105% (inactive)

Tell us which growth value is on record for COc1ccc(-c2c[nH]c(C(=O)O)c2-c2cc(OC)c(OC)c(OC)c2)cc1 53.2% (inactive)

Tell us which growth value is on record for CN(C)CCNc1ncc(F)c(-c2cnc3cc(-c4cnn(C)c4)ccn23)n1 21% [30 µM] (inactive)

Tell us which growth value is on record for CCCCCO/N=C\c1c2c(O)c3c(O)c(C)c4c(c3c1O)C(=O)C(C)(O/C=C\C(OC)C(C)C(OC(C)=O)C(C)C(O)C(C)C(O)C(C)/C=C\C=C(\C)C(=O)N2)O4 (configuration not stated) 33.9% (inactive)

Tell us which growth value is on record for C=CCOc1ccc(/C=C2\SC(=S)N(CCc3ccc(O)cc3)C2=O)cc1 115% (inactive)

Tell us which growth value is on record for Cc1ccc(S(=O)(=O)Nc2cc(Sc3ccccc3)c(O)c3ccccc23)cc1 115% (inactive)

Tell us which growth value is on record for CCN(c1cc(-c2ccc(CN3CCC(/C=C/S(=O)(=O)c4ccccc4)CC3)cc2)cc(C(=O)NCc2c(C)cc(C)[nH]c2=O)c1C)C1CCOCC1 86.2% (inactive)

Tell us which growth value is on record for COc1ccc2c(c1)oc1c(C)c3c(c(C)c12)C(=O)N(Nc1ccccc1)C3=O 92% (inactive)

Tell us which growth value is on record for CCN1C(=O)/C(=c2\sc3n(c2=O)C2C(NN=3)N(CC)C(=O)N2CC)c2ccccc21 (configuration not stated) 54.5% (inactive)

Tell us which growth value is on record for Clc1ccc2c(NCCN3CCN(c4ccnc(N5CCCC5)n4)CC3)ccnc2c1 90% (inactive)

Tell us which growth value is on record for Nc1ncc(-c2ccc3ncnc(N4CCc5ccc(Cl)cc54)c3c2)cc1C(F)(F)F 6.83% (active)

Tell us which growth value is on record for Cc1ccc(Nc2nc(-c3cc(O)c(C)c(C)c3O)cs2)cc1 105% (inactive)

Tell us which growth value is on record for COC(=O)c1nc(-c2ccccc2)oc1S(=O)(=O)N(C)CCO 89.8% (inactive)

Tell us which growth value is on record for O=C(CN1C(=O)S/C(=C\C(Cl)=C\c2ccccc2)C1=O)NC1C=CS(=O)(=O)C1 (configuration not stated) 98.8% (inactive)

Tell us which growth value is on record for N#CSc1c[nH]c2ccc(/C=C/C(=O)/C=C(/C=C/c3ccc4[nH]cc(SC#N)c4c3)OB(F)F)cc12 98.4% (inactive)

Tell us which growth value is on record for OB(O)c1ccsc1-c1nc2ccc3[nH]ncc3c2c2c1CCCC2 15.3% (inactive)

Tell us which growth value is on record for Cn1c(=O)c2c(nc(Nc3cc(=O)[nH]c(=O)[nH]3)n2Cc2ccccc2)n(C)c1=O 24.6% (inactive)

Tell us which growth value is on record for Cc1nc(-n2[nH]c(=O)ccc2=O)sc1N=Nc1ccccc1 103% (inactive)

Tell us which growth value is on record for O=[N+]([O-])c1ccc2[nH]c3nccc(NCc4cccc(Cl)c4)c3c2c1 91.9% (inactive)

Tell us which growth value is on record for CCCCC(NC(=O)CN1C(=O)/C(=C/C(C)=C/c2ccccc2)SC1=S)C(=O)O (configuration not stated) 105% (inactive)

Tell us which growth value is on record for COc1ccc(CCNC(=O)COc2cc3c(Nc4ccc(F)c(Cl)c4)ncnc3cc2OC)cc1OC 89.8% (inactive)

Tell us which growth value is on record for COc1ccc(-c2ccc(-c3ccc(C(=N)N)cn3)s2)cc1Cl 100% (inactive)

Tell us which growth value is on record for COc1cc(/C=N/NC(=O)CCN2c3ccccc3Sc3ccccc32)cc(OC)c1OC 105% (inactive)

Tell us which growth value is on record for COC1/C=C/OC2(C)Oc3c(C)c(O)c4c(O)c(c(C=NOC(c5ccccc5)c5ccccc5)c(O)c4c3C2=O)NC(=O)/C(C)=C/C=C/C(C)C(O)C(C)C(O)C(C)C(OC(C)=O)C1C (configuration not stated) -34% (active)

Tell us which growth value is on record for N=C(N)c1ccc(-c2ccc(-c3ccc(F)cc3)s2)nc1 86.3% (inactive)

Tell us which growth value is on record for Cc1c(C(=O)OCCCCOC(=O)c2c(C)n(C)c3scc[n+]23)[n+]2ccsc2n1C 103% (inactive)

Tell us which growth value is on record for Cc1cccc(-c2nnc(SCC(=O)Nc3ncc(Cc4ccccc4)s3)n2N2C(=O)CSC2=S)c1 87.2% (inactive)

Tell us which growth value is on record for CCNC(=O)Oc1ccc(/C(=C(/C)Cc2ccc(OC)cc2)c2ccc(OCCN(CC)CC)cc2)cc1 88.6% (inactive)

Tell us which growth value is on record for C#Cc1cc(C(=O)Nc2ccc(CN3CCN(C)CC3)c(C(F)(F)F)c2)ccc1C 93.2% (inactive)

Tell us which growth value is on record for CC1=C2[C@@H](CC1)[C@]1(C)O[C@@](C3CC3)(C[C@H]1OC(=O)CO)[C@H]2OC(=O)/C=C/c1ccccc1 99.3% (inactive)

Tell us which growth value is on record for O=C1N=c2ccccc2=C1c1sc(=S)n(C2CC(=O)N(c3ccc(Cl)cc3)C2=O)c1O (configuration not stated) 103% (inactive)

###

Test system: SNB-75 CNS
Experiment: NCI-60 one-dose screen, 48 h (100 = growth as untreated, 0 = no growth, -100 = all killed)
Conditions: 10 µM unless noted
Compounds without any hit were thinned out: in the full panel of roughly 83,000, 20% have a hit.
Endpoint: growth (%)
Enter your answer as a number in %; do not include the unit.

Tell us which growth value is on record for Cc1ccccc1SSc1ccccc1C 123

Tell us which growth value is on record for CCCCCO/N=C\c1c2c(O)c3c(O)c(C)c4c(c3c1O)C(=O)C(C)(O/C=C\C(OC)C(C)C(OC(C)=O)C(C)C(O)C(C)C(O)C(C)/C=C\C=C(\C)C(=O)N2)O4 (stereo not drawn) 39.3

Tell us which growth value is on record for CN1CCN(CCNC(=O)c2cccc(CN3c4cccc5c4C(=Cc4cccnc43)N(C)C5=O)c2)CC1 -11.2

Tell us which growth value is on record for CC/C=C\C/C=C\C[C@H](O)C/C=C1/C(=O)C=C[C@@H]1C/C=C\CCCC(=O)OC 53.3

Tell us which growth value is on record for [2H]C([2H])([2H])Oc1cc(F)ccc1/C=C/C(=O)/C=C(/C=C/c1ccc(F)cc1OC([2H])([2H])[2H])OB(F)F 81.1

Tell us which growth value is on record for CC1(C)C(N)=Nc2cc(OCCCCN3Cc4ccccc4C3)c(OCC3CC3)cc21 78.9

Tell us which growth value is on record for C=C(C)[C@@H]1CC[C@]2(C(=O)O)CC[C@]3(C)[C@H](CC[C@@H]4[C@@]5(C)CCC(N)C(C)(C)[C@@H]5CC[C@]43C)[C@@H]12 (stereo partly drawn) 95.8

Tell us which growth value is on record for C=C1CCC2C3(C)COC(c4ccc(NC(C)=O)cc4)OC3CCC2(C)C1C/C=C1/C(=O)OCC1O (stereo not drawn) 63.9

Tell us which growth value is on record for COc1ccc(-c2c[nH]c(C(=O)O)c2-c2cc(OC)c(OC)c(OC)c2)cc1 -15.5

Tell us which growth value is on record for Nc1ncc(-c2ccc3ncnc(N4CCc5ccc(Cl)cc54)c3c2)cc1C(F)(F)F -23.4

Tell us which growth value is on record for N#C/C(=C\c1ccc(Br)cc1)n1nnc2c(F)cccc21 18.8

Tell us which growth value is on record for CN1CCN(c2ccc(Nc3ncc(C(N)=O)c(NCCCNC(=O)C4CCC4)n3)cc2)CC1 67.7

Tell us which growth value is on record for COc1ccc(-c2nc(Cl)c3c(C)nn(-c4ccc(F)cc4)c3n2)cc1 104

Tell us which growth value is on record for N=C(N)SCc1c2ccccc2c(CSC(=N)N)c2ccccc12 89.5

Tell us which growth value is on record for CN(C)C(=O)c1cc2cnc(Nc3ccc(-c4csc5c(=S)cc(N6CCOCC6)oc45)cc3)nc2n1C1CCCC1 -37.4

Tell us which growth value is on record for COc1ccc2c(c1)c(C(=O)c1nc(-c3cn(C)c4ccccc34)no1)cn2C 108

Tell us which growth value is on record for O=C(N=Nc1c(O)[nH]c2ccccc12)Nc1ccc(Br)cc1 105

Tell us which growth value is on record for CCN1C(=O)/C(=c2\sc3n(c2=O)C2C(NN=3)N(CC)C(=O)N2CC)c2ccccc21 (stereo not drawn) 5.72
